Experiment: Cytotoxicity against human HepG2 cells assessed as decrease in ATP signal after 2 days by CellTiter-Glo assay
Assay type: cell-based
Conditions: read-out: LD50
Measure: CC50 at 48 h

See these solved cases before continuing.
Compound: O=[N+]([O-])c1cc2ccccc2o1
Observed measurement: 3 µg/mL

Compound: CCCc1cc(=O)oc2cc(N3CCNCC3)c3c(c12)OC(C)(C)C=C3.O=C(O)C(F)(F)F
Observed measurement: 12 µg/mL

Compound: CCCc1cc(=O)oc2cc(OCCN3CCOCC3)c3c(c12)OC(C)(C)C=C3
Observed measurement: 20 µg/mL

Compound: CCCc1cc(=O)oc2cc(OC3CCCCC3)c3c(c12)OC(C)(C)C=C3
Observed measurement: > 18 µg/mL

Compound: CC1(C)C=Cc2c(c3c(CN4CCSCC4)cc(=O)oc3c3cc([N+](=O)[O-])oc23)O1
Observed measurement: 1 µg/mL

Compound: Cc1c(F)c(=O)oc2c1c1c(c3oc([N+](=O)[O-])cc32)C=CC(C)(C)O1
Observed measurement: > 50 µg/mL

Compound: CCCc1cc(=O)oc2cc(N3CCN(C(=O)Nc4ccc(C(C)C)cc4)CC3)c3c(c12)OC(C)(C)C=C3
Observed measurement: > 26 µg/mL

Compound: Cc1cc(=O)oc2c1c1c(c3oc([N+](=O)[O-])cc32)C=CC(C)(C)O1
Observed measurement: 1 µg/mL

Compound: CCCc1cc(=O)oc2cc(OC(C)C)c3c(c12)OC(C)(C)C=C3
Observed measurement: > 16 µg/mL

Compound: CCCc1cc(=O)oc2cc(N3CCN(C(=O)Nc4ccc(F)c(Cl)c4)CC3)c3c(c12)OC(C)(C)C=C3
Observed measurement: > 26 µg/mL

// query Specify CC50 at 48 h for CCCc1cc(=O)oc2c3c(cc(OCCN4CCOCC4)c12)O[C@H]([N+](=O)[O-])[C@H]3C(C)C (racemic) and stop.
// result > 22 µg/mL

// query Specify CC50 at 48 h for CCCc1cc(=O)oc2c3c(cc(OCCN4CCOCC4)c12)O[C@@H]([N+](=O)[O-])[C@@H]3O and stop.
// result 0.8 µg/mL

// query Specify CC50 at 48 h for CCCc1cc(=O)oc2cc(N3CCN(C(=O)Nc4ccc(OC)cc4)CC3)c3c(c12)OC(C)(C)C=C3 and stop.
// result > 25 µg/mL
